- SYSTEM UNDER TEST: FGFR4 (Homo sapiens, UniProt P22455)
- Construct: made in house; host or cells: E. coli (BL21-derived), T7 phage
- Sequence (P22455 22-802): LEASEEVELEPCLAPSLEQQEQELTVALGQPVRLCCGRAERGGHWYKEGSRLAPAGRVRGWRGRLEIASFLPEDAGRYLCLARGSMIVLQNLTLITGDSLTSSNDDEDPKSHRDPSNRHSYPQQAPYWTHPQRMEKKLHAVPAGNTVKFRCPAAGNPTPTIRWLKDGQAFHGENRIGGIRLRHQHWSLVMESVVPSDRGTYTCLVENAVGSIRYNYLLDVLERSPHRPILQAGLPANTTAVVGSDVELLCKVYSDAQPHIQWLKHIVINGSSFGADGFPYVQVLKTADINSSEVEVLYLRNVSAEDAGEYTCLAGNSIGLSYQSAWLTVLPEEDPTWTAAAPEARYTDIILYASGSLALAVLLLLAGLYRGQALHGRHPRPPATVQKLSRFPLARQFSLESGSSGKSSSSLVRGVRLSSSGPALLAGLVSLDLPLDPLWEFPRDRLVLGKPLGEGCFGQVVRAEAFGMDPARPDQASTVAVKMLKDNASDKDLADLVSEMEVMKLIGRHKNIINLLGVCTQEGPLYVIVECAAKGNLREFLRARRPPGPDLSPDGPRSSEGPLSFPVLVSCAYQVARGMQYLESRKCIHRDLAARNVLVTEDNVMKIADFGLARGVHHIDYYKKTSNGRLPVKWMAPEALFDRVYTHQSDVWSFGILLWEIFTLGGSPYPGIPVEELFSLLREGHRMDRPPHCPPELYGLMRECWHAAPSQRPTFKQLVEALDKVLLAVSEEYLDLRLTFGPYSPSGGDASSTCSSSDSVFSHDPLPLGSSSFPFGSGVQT
- PROCEDURE DETAILS: Kinase binding assay (kinase-tagged T7 phage, affinity beads, qPCR), Kd
- MEASUREMENT SETUP: read-out: FGFR4 (Kd nM)
OBSERVABLE: Kd

Below, each entry is followed by its recorded Kd result.
• COc1cc2[nH]nc(-c3cnc(N4C[C@H](CS(C)(=O)=O)[C@H]4C)c(C#N)c3)c2cc1O[C@@H](C)c1c(Cl)cncc1Cl = 1 to 50 nM
• COc1cc2[nH]nc(-c3cnc(N4CC5(CC5)C4)c(C#N)c3)c2cc1O[C@H](C)c1c(Cl)cncc1Cl = 1 to 50 nM
• CC(C)NC1(C)CN(c2ccc(-c3n[nH]c4ccc(O[C@H](C)c5c(Cl)cncc5Cl)c(F)c34)cn2)C1 = 300 to 1000 nM

Lab note: measured Kd of C[C@@H](Oc1ccc2[nH]nc(-c3ccc(N4CC(C)(N5C[C@H]6C[C@@H]5CO6)C4)nc3)c2c1)c1c(Cl)cncc1Cl was 1 to 50 nM

Lab note: measured Kd of C[C@@H](Oc1ccc2[nH]nc(-c3cnc(N4CC(C)(NCC5CC5)C4)nc3)c2c1)c1c(Cl)cncc1Cl was 1 to 50 nM

Lab note: measured Kd of C[C@@H](Oc1ccc2[nH]nc(-c3cnc(N4CC(C)(CS(C)(=O)=O)C4)c(F)c3)c2c1F)c1c(Cl)cncc1Cl was 300 to 1000 nM

----------
This section presents compounds with their documented Kd values.
- SYSTEM UNDER TEST: FGFR1 (Homo sapiens, UniProt P11362)
- Construct: made in house; host or cells: E. coli (BL21-derived), T7 phage
- Sequence (P11362 22-822): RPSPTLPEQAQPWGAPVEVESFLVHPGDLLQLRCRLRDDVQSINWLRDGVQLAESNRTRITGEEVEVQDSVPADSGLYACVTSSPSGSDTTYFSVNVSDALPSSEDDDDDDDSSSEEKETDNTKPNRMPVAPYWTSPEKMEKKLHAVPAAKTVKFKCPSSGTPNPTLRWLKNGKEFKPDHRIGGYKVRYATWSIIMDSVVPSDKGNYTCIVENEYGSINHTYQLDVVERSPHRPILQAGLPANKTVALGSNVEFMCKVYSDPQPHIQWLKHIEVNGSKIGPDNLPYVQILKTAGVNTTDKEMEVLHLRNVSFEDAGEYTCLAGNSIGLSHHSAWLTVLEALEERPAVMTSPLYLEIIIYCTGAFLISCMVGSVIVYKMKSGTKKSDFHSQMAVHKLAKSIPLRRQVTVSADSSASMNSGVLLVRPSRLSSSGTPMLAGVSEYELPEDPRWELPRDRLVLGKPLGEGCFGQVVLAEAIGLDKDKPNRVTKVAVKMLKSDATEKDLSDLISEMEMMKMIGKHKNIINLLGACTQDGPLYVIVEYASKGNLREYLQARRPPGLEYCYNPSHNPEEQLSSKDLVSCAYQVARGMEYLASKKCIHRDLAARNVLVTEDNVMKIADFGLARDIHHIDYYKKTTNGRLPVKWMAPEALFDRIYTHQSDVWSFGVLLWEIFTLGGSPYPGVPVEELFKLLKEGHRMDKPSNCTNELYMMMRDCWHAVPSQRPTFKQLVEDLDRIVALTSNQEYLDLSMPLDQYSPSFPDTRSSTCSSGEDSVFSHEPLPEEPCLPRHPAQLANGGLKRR
- PROCEDURE DETAILS: Kinase binding assay (kinase-tagged T7 phage, affinity beads, qPCR), Kd
- MEASUREMENT SETUP: read-out: FGFR1 (Kd nM)

Below, each entry is followed by its recorded Kd result.
• C[C@@H](Oc1ccc2[nH]nc(-c3cnc(N4CC(N)(C5CCOCC5)C4)c(F)c3)c2c1)c1c(Cl)cncc1Cl = 1 to 50 nM
• C[C@@H](Oc1cc2c(-c3ccc(N4CC(C)(CN5CCCC5)C4)nc3)n[nH]c2cc1F)c1c(Cl)cncc1Cl = 1 to 50 nM
• CCN(CC)C1(C)CN(c2ncc(-c3n[nH]c4ccc(O[C@H](C)c5c(Cl)cncc5Cl)cc34)cc2C#N)C1 = 1 to 50 nM
• C[C@@H](Oc1ccc2[nH]nc(-c3cnc(N4CC(C)(CP(C)(C)=O)C4)c(C#N)c3)c2c1F)c1c(Cl)cncc1Cl = > 1000 nM
• CNC1(C)CN(c2ccc(-c3n[nH]c4ccc(O[C@H](C)c5c(Cl)cncc5Cl)cc34)cn2)C1 = 1 to 50 nM

Lab note: measured Kd of COc1cc2[nH]nc(-c3cnc(N4CC(CC#N)(NCC5CC5)C4)c(C#N)c3)c2cc1O[C@H](C)c1c(Cl)cnc(C)c1Cl was 50 to 300 nM

Lab note: measured Kd of C=CCC1(N)CN(c2ccc(-c3n[nH]c4ccc(O[C@H](C)c5c(Cl)cncc5Cl)cc34)nn2)C1 was 1 to 50 nM

----------
This section presents molecules with their documented Kd values.
- SYSTEM UNDER TEST: FGFR3 (Homo sapiens, UniProt P22607)
- Construct: made in house; host or cells: E. coli (BL21-derived), T7 phage
- Sequence (P22607 23-806): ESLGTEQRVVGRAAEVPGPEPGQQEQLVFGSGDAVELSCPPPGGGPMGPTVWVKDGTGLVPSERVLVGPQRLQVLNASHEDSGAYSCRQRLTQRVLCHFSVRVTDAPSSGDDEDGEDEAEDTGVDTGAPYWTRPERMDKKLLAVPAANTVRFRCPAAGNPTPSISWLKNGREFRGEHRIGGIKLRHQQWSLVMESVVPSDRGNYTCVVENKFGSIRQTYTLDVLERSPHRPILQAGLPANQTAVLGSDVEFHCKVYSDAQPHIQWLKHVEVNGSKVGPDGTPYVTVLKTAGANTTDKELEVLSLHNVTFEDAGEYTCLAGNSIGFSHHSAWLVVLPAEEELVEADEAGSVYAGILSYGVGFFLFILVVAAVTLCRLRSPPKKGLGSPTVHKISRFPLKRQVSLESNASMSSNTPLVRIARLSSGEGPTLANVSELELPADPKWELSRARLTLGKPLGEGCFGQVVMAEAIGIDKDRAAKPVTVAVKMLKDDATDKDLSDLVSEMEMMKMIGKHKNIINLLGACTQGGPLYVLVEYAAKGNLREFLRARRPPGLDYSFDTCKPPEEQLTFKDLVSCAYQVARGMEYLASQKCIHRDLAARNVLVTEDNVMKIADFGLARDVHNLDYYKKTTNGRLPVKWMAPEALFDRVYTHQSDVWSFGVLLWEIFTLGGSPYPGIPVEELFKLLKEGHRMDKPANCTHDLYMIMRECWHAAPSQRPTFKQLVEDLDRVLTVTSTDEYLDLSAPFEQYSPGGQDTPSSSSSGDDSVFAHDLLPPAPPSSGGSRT
- PROCEDURE DETAILS: Kinase binding assay (kinase-tagged T7 phage, affinity beads, qPCR), Kd
- MEASUREMENT SETUP: read-out: FGFR3 (Kd nM)

Lab note: measured Kd of C[C@@H](Oc1ccc2[nH]nc(-c3cnc(N4CC(C)(CN5CCCC5)C4)c(C#N)c3)c2c1)c1c(Cl)cncc1Cl was 1 to 50 nM

----------
This section presents compounds with their documented pIC50 values.
- Test system: KG-1 cell line (FGFR 1-fusion)
- PROCEDURE DETAILS: Cancer cell line cell viability assay (Cell Titer-Glo), 72 hr
- Format: cell-based
- MEASUREMENT SETUP: Homo sapiens, KG-1, KG-1 cell line (FGFR1-fusion)
pIC50: −log10 of the molar value.

* COc1cc2[nH]nc(-c3cnc(N4CC(C)(N5CCS(=O)(=O)CC5)C4)c(C#N)c3)c2cc1O[C@H](C)c1c(Cl)cncc1Cl [Example 334] | 6.00 to 6.70
* COC1(C)CN(C2(C)CN(c3ncc(-c4n[nH]c5ccc(O[C@H](C)c6c(Cl)cncc6Cl)cc45)cc3C#N)C2)C1 [Example 102] | 6.00 to 6.70
* C[C@@H](Oc1ccc2[nH]nc(-c3cnc(N4C[C@@H](CS(C)(=O)=O)[C@@H]4C)c(F)c3)c2c1)c1c(Cl)cncc1Cl [Example 206] | 6.70 to 7.30
* CC(C)NC1(C)CN(c2ccc(-c3n[nH]c4ccc(O[C@H](C)c5c(Cl)cncc5Cl)cc34)nn2)C1 [Example 244] | 6.70 to 7.30
* CNC1(CC#N)CN(c2ncc(-c3n[nH]c4cc(OC)c(O[C@H](C)c5c(Cl)cncc5Cl)cc34)cc2C#N)C1 [Example 153] | 6.70 to 7.30

# value of pIC50, KG-1 cell line (FGFR 1-fusion), item C[C@@H](Oc1ccc2[nH]nc(-c3ccc(N4CC(C)(N5CC6CC(C5)O6)C4)nc3)c2c1)c1c(Cl)cncc1Cl [Example 222] = 7.30 to 10.00

# value of pIC50, KG-1 cell line (FGFR 1-fusion), item CCN(CC)C1(C)CN(c2ccc(-c3n[nH]c4ccc(O[C@H](C)c5c(Cl)cnc(C)c5Cl)cc34)cn2)C1 [Example 72] = 6.00 to 6.70

# value of pIC50, KG-1 cell line (FGFR 1-fusion), item COc1cc2[nH]nc(-c3cnc(N4CC(N)(C5CCC5)C4)c(C#N)c3)c2cc1O[C@H](C)c1c(Cl)cncc1Cl [Example 356] = 6.70 to 7.30

----------
This section presents compounds with their documented Kd values.
- SYSTEM UNDER TEST: FGFR2 (Homo sapiens, UniProt P21802)
- Construct: made in house; host or cells: E. coli (BL21-derived), T7 phage
- Sequence (P21802 22-821): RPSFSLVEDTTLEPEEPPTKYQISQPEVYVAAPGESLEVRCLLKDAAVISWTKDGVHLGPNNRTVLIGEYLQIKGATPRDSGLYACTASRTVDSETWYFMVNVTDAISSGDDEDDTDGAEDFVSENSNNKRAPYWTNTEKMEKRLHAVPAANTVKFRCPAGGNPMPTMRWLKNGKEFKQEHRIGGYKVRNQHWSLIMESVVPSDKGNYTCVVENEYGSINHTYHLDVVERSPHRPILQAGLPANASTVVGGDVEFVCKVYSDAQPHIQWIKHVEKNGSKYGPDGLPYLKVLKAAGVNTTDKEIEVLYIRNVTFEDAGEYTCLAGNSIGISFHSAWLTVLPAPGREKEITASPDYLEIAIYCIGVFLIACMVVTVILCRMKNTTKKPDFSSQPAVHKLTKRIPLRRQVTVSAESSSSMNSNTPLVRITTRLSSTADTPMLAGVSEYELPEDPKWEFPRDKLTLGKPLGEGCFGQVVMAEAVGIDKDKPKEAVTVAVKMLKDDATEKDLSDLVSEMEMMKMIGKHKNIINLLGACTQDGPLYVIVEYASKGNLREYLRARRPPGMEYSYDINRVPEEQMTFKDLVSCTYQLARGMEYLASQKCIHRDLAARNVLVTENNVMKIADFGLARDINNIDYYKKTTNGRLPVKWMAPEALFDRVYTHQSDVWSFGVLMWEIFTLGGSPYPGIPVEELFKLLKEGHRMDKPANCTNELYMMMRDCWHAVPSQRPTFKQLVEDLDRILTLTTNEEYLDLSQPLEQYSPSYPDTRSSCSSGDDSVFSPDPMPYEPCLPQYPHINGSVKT
- PROCEDURE DETAILS: Kinase binding assay (kinase-tagged T7 phage, affinity beads, qPCR), Kd
- MEASUREMENT SETUP: read-out: FGFR2 (Kd nM)

Below, each entry is followed by its recorded Kd result.
- Cc1ncc(Cl)c([C@@H](C)Oc2ccc3[nH]nc(-c4cnc(N5CC(C)(N)C5)c(C#N)c4)c3c2)c1Cl [Example 39]: 50 to 300 nM
- CC(=O)N1CCN(C2(C)CN(c3ncc(-c4n[nH]c5ccc(O[C@H](C)c6c(Cl)cncc6Cl)cc45)cc3F)C2)CC1 [Example 220]: 1 to 50 nM
- C[C@@H](Oc1ccc2[nH]nc(-c3ccc(N4CC(C)(CN5CCCC5)C4)nc3)c2c1F)c1c(Cl)cncc1Cl [Example 191]: 300 to 1000 nM
- CNC1(C)CN(c2ccc(-c3n[nH]c4ccc(O[C@H](C)c5c(Cl)cncc5Cl)cc34)cn2)C1 [Example 233]: 1 to 50 nM
- COc1cc2[nH]nc(-c3cnc(N4CC5(CC5)C4)nc3)c2cc1O[C@H](C)c1c(Cl)cncc1Cl [Example 62]: 1 to 50 nM

--- query ---
Lab note: measured Kd of Cc1ncc(Cl)c([C@@H](C)Oc2ccc3[nH]nc(-c4cnc(N5CC(C)(N(C)C)C5)c(C#N)c4)c3c2)c1Cl [Example 45] was 50 to 300 nM

----------
- Tested on: KG-1 cell line (FGFR 1-fusion)
- PROCEDURE DETAILS: Cancer cell line cell viability assay (Cell Titer-Glo), 72 hr
- Assay type: cell-based
- MEASUREMENT SETUP: Homo sapiens, KG-1, KG-1 cell line (FGFR1-fusion)
This section presents compounds with their documented IC50 values.

Below, each entry is followed by its recorded IC50 result.
• COc1cc2[nH]nc(-c3cnc(N4CC(CC#N)(N5CCCC5)C4)c(C#N)c3)c2cc1O[C@H](C)c1c(Cl)cncc1Cl [Example 354] = 50 to 200 nM
• C[C@@H](Oc1ccc2[nH]nc(-c3cnc(N4CC(C)(NCC(C)(C)O)C4)c(C#N)c3)c2c1)c1c(Cl)cncc1Cl [Example 54] = 200 to 1000 nM

--- query ---
Lab note: measured IC50 of C[C@H](Oc1ccc2[nH]nc(-c3cnc(N4CC(C)(CS(C)(=O)=O)C4)c(F)c3)c2c1)c1c(Cl)cncc1Cl [Example 200] was > 1000 nM

----------
- SYSTEM UNDER TEST: FGFR2 (Homo sapiens)
- Construct: made in house; host or cells: E. coli (BL21-derived), T7 phage
- PROCEDURE DETAILS: Kinase binding assay (kinase-tagged T7 phage, affinity beads, qPCR), Kd
- MEASUREMENT SETUP: read-out: FGFR2 (Kd nM)
This section presents compounds with their documented Kd values.

- C[C@@H](Oc1ccc2[nH]nc(-c3cnc(N4CC(C)(N(C)C)C4)c(C#N)c3)c2c1)c1c(Cl)cncc1Cl: 50 to 300 nM

Lab note: measured Kd of COc1cc2[nH]nc(-c3cnc(N4CC(C)(CP(C)(C)=O)C4)c(C#N)c3)c2cc1O[C@H](C)c1c(Cl)cncc1Cl was 1 to 50 nM

Lab note: measured Kd of C[C@@H](Oc1ccc2[nH]nc(-c3cnc(N4CC(C)(N5CC(C)(C)C5)C4)c(F)c3)c2c1)c1c(Cl)cncc1Cl was 1 to 50 nM

Lab note: measured Kd of COc1cc2[nH]nc(-c3cnc(N4CC(CC#N)(N(C)C(C)C)C4)c(C#N)c3)c2cc1O[C@H](C)c1c(Cl)cncc1Cl was 50 to 300 nM

Lab note: measured Kd of Cc1ncc(Cl)c([C@@H](C)Oc2ccc3[nH]nc(-c4cnc(N5CC(C)(NCC6CC6)C5)c(F)c4)c3c2)c1Cl was 1 to 50 nM

Lab note: measured Kd of COc1cc2[nH]nc(-c3cnc(N4CC(C)(NC5CCC5)C4)c(C#N)c3)c2cc1O[C@H](C)c1c(Cl)cncc1Cl was 1 to 50 nM

Lab note: measured Kd of COc1cc2[nH]nc(-c3cnc(N4CC(N)(C(C)C)C4)c(C#N)c3)c2cc1O[C@H](C)c1c(Cl)cncc1Cl was 1 to 50 nM

Lab note: measured Kd of C[C@H](Oc1ccc2[nH]nc(-c3cnc(N4CC(C)(CS(C)(=O)=O)C4)c(F)c3)c2c1)c1c(Cl)cncc1Cl was > 1000 nM

Lab note: measured Kd of CCCNC1(C)CN(c2ccc(-c3n[nH]c4ccc(O[C@H](C)c5c(Cl)cncc5Cl)cc34)cn2)C1 was 1 to 50 nM

Lab note: measured Kd of CC[C@H](C)NC1(C)CN(c2ncc(-c3n[nH]c4cc(OC)c(O[C@H](C)c5c(Cl)cncc5Cl)cc34)cc2C#N)C1 was 1 to 50 nM
